# assay_target: GSK3β kinase (Homo sapiens, UniProt P49841)
# Sequence (P49841 whole entry): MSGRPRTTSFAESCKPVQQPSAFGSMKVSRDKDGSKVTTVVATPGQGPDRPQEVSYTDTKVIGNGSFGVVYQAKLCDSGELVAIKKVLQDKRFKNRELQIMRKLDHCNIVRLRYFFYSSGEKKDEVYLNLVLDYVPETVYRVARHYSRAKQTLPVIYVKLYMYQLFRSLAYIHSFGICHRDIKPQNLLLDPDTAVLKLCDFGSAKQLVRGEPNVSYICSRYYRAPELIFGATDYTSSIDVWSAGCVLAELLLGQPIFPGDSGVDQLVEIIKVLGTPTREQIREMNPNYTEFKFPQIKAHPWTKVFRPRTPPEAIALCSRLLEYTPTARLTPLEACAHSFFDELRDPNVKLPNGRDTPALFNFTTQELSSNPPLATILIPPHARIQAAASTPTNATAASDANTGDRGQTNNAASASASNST
# test_name: GSK3β kinase activity (Ser/Thr 09 peptide Z-lyte FRET assay)
# Type: biochemical
# protocol_conditions: recombinant kinase, 46 μM ATP, one hour at room temperature; read-out: EC50
observable: EC50 (nM)

Cc1nnc(-c2cc3cc(NC(=O)CN4C5CCC4CC5)ncc3cn2)s1 [Compound 4353] : 2450
Cc1cn2c(n1)CN(C(=O)Nc1cc3nc(-c4cnc(C)o4)ccc3cn1)CC2 [Compound 585] : 109

a. O=C(Nc1cc2cc(-c3cncc(NC4CCNCC4)n3)ncc2cn1)C1CCOCC1 [Compound 4504]
b. CC(C)Oc1ccc(C(=O)Nc2cc3nc(-c4cnc5n4CCNC5)ccc3cn2)cc1 [Compound 523]
Task: Please state the entry with greater EC50 among a and b . Lab note: record the label of whichever item you select.
Output: b

====

# Tested on: α-smooth muscle actin (aSMA) positive LL29 cells
# test_name: Inhibition of the fibrotic process: αSMA staining in TGF-β1 treated LL29 fibroblasts from IPF patients
# protocol_conditions: Homo sapiens, Fibroblast, 96 h
Listed here: items and their measured EC50.
Value expressed in nM; do not type the unit.

Examples from the recorded data:
Cn1cc(-c2ccc3cnc(NC(=O)c4ccc5ccoc5c4)cc3n2)cn1 [Compound 209] : 436
Cn1cc(-c2ccc3cnc(NC(=O)c4ccnc(OC5CCNCC5)c4)cc3n2)cn1 [Compound 153] : 1100

Task: Would you mind telling me what EC50 value was observed for O=C(Nc1cc2cc(-c3cnco3)cnc2cn1)[C@H]1CC[C@H](CO)CC1 [Compound 4610] ?
Output: 4190

Task: Which EC50 value belongs to CN1CCN(c2ncc(C(=O)Nc3cc4nc(-c5cnn(C)c5)ccc4cn3)s2)CC1 [Compound 4539] ?
Output: 1100

Task: EC50 for CN1CCN(Cc2cccc(C(=O)Nc3cc4cc(-c5cnn(C)c5)ncc4cn3)c2)CC1 [Compound 3799] ?
Output: 2580

====

# assay_target: DYRK1A kinase (Homo sapiens)
# test_name: DYRK1A kinase activity (Ser/Thr 18 peptide Z-lyte FRET assay);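 further: kinase activity read as coumarin/fluorescein emission ratio after development step, with unphosphorylated and phosphorylated peptide forms setting 0% and 100% controls, values from dose-response curves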
# protocol_conditions: recombinant DYRK1A, 30 μM ATP, one hour at room temperature
observable: EC50 (µM)

P. O=C(Nc1cc2nc(-c3cncs3)ccc2cn1)[C@H]1CC[C@H](CN2CC(F)C2)CC1
Q. Cc1ncc(-c2ccc3cnc(NC(=O)C4CCN(CC(C)(F)F)CC4)nc3c2)o1
Task: // pick larger EC50 from pair: P vs Q Reply with the label of the item you choose.
Output: Q

a. Cc1ncc(-c2ccc3cnc(NC(=O)N4CCC(N5CCOCC5)CC4)nc3c2)o1
b. COC1CCN(CC(=O)Nc2ncc3ccc(-c4cn(C)nn4)cc3n2)CC1
Task: Between the two listed entries a and b , which has its EC50 at the higher number? Give the chosen item's label as your response.
Output: a
(a: 0.246 µM, b: 0.043 µM)

====

# assay_target: GSK3β kinase (Homo sapiens)
# test_name: GSK3β kinase activity (Ser/Thr 09 peptide Z-lyte FRET assay)
# Format: biochemical
# protocol_conditions: recombinant kinase, 46 μM ATP, one hour at room temperature; read-out: EC50
observable: EC50 (nM)

Past entries and their recorded results:
O=C(Nc1ncc2ccc(-c3cncc(NC4CCNCC4)n3)cc2n1)C1CCOCC1 [Compound 1783] : 536
Cn1ncc(-c2cnc3cnc(NC(=O)C4CC5(C4)CN(CCF)C5)cc3c2)c1CN1CCCCC1 [Compound 3000] : 166

I. Cc1nnc(-c2ccc3cnc(NC(=O)c4ccnc(N5CCN(C)CC5)c4)nc3c2)s1 [Compound 1656]
II. Cn1cc(-c2cnc3cnc(NC(=O)C4CCNCC4)cc3c2)cn1 [Compound 2731]
Task: Problem: Given the entries I and II , determine which has the lower reported EC50. State your choice using its label.
Output: I

1. Cn1cc(-c2ccc3cnc(NC(=O)C4CCN(CC5(C(F)(F)F)CC5)CC4)nc3c2)nn1 [Compound 1253]
2. COCCN[C@H]1CC[C@H](C(=O)Nc2cc3nc(-c4cnn(C)c4)ccc3cn2)CC1 [Compound 4536]
Task: Please indicate which item has the smaller measured EC50: 1 versus 2 # answer = label of selected item
Output: 1
(1: 15 nM, 2: 319 nM)

A. Cn1cc(-c2cc3cc(NC(=O)C4CCN(Cc5ncco5)CC4)ncc3cn2)cn1 [Compound 3723]
B. CN(C)Cc1ccc(C(=O)Nc2ncc3ccc(-c4cnn(C)c4)cc3n2)cc1 [Compound 1077]
C. Cn1cc(-c2ccc3cnc(NC(=O)C4CCN(Cc5ncccn5)CC4)cc3n2)cn1 [Compound 99]
Task: # rank_down: sort by EC50, max first Returns: the labels listed in the requested order.
Output: B, C, A

====

# System: α-smooth muscle actin (aSMA) positive LL29 cells
# test_name: Inhibition of the fibrotic process: αSMA staining in TGF-β1 treated LL29 fibroblasts from IPF patients
# protocol_conditions: Homo sapiens, Fibroblast, 96 h
observable: pEC50
Schema: pEC50 number; meaning minus log10 of the concentration expressed in molar units.

Cn1cc(-c2ccc3cnc(NC(=O)C4CC4)nc3c2)cn1 : 5.86
Cc1ncc(C(=O)Nc2cc3cc(-c4cnc(C)n4C)cnc3cn2)s1 : 5.69
CN(CC(=O)Nc1cc2nc(-c3cnn(C)c3)ccc2cn1)C1CCC1 : 5.29
CCN(CC)CC(=O)Nc1cc2cc(-c3cnn(C)c3CN3CCCCC3)ncc2cn1 : 5.97

Task: Observed pEC50 on α-smooth muscle actin (aSMA) positive LL29 cells for Cn1cncc1-c1ccc2cnc(NC(=O)c3ccc(F)cc3)nc2c1 , please.
Output: 5.29

Task: Give pEC50 (α-smooth muscle actin (aSMA) positive LL29 cells) of the following compound: O=C(Nc1ncc2ccc(-c3cncs3)cc2n1)[C@H]1CC[C@H](CO)CC1
Output: 5.35

Task: Find the measured pEC50: item Cc1nnc(-c2cc3cc(NC(=O)c4ccnc(N5CCN(C)CC5)c4)ncc3cn2)s1 , target or system α-smooth muscle actin (aSMA) positive LL29 cells.
Output: 5.53

Task: Form: Entry = Cn1cc(-c2cc3cc(NC(=O)c4ccnc(OC5CCNCC5)c4)ncc3cn2)cn1 | System = α-smooth muscle actin (aSMA) positive LL29 cells | pEC50 = ____
Output: 5.32

Task: Give pEC50 (α-smooth muscle actin (aSMA) positive LL29 cells) of the following compound: Cn1cc(-c2ccc3cnc(NC(=O)c4ccc5nccnc5c4)cc3n2)cn1
Output: 6.22

Task: Recall the recorded pEC50 for Cn1ncc(-c2cc3cc(NC(=O)C4CC5(C4)CN(CCF)C5)ncc3cn2)c1CN1CCCCC1 with α-smooth muscle actin (aSMA) positive LL29 cells and state it.
Output: 5.74

Task: Record Cn1cc(-c2ccc3cnc(NC(=O)C4CCNCC4)cc3n2)cn1 : what is its pEC50 with α-smooth muscle actin (aSMA) positive LL29 cells?
Output: 5.60

Task: Form field - read-out: pEC50; system: α-smooth muscle actin (aSMA) positive LL29 cells; submitted item: Cn1ncc(-c2cc3cc(NC(=O)c4ccnc(N5CCOCC5)c4)ncc3cn2)c1CN1CCOCC1
Output: 5.92

Task: Form entry - test system: α-smooth muscle actin (aSMA) positive LL29 cells; read-out: pEC50; compound: CC(C)OCCC(=O)Nc1ncc2ccc(-c3cncn3C)cc2n1
Output: 5.70

Task: Value wanted: pEC50 (α-smooth muscle actin (aSMA) positive LL29 cells) of entry CN1CCN(c2cc(C(=O)Nc3cc4cc(-c5cncc(N)c5)ncc4cn3)ccn2)CC1
Output: 5.76

Task: // lookup pEC50 | system=α-smooth muscle actin (aSMA) positive LL29 cells | key= CN1CCN(c2cc(C(=O)Nc3cc4cc(-c5cnn(C)c5)ncc4cn3)ccn2)CC1
Output: 5.23

====

# assay_target: GSK3β kinase (Homo sapiens)
# test_name: GSK3β kinase activity (Ser/Thr 09 peptide Z-lyte FRET assay)
# Format: biochemical
# protocol_conditions: recombinant kinase, 46 μM ATP, one hour at room temperature; read-out: EC50
pEC50: −log10 of the molar value.
observable: pEC50

CC(C(=O)Nc1ncc2ccc(-c3cnn(C)c3)cc2n1)N1CCCCC1 (centres unmarked) : 7.06
O=C(Nc1cc2nc(-c3cncc(NC4CCNCC4)n3)ccc2cn1)C1CCOCC1 : 5.00
CN1CCN(c2ccc(C(=O)Nc3ncc4ccc(-c5cnn(C)c5)cc4n3)cn2)CC1 : 5.50

A. O=C(Nc1cc2cc(-c3cnco3)cnc2cn1)C1CCN(C(=O)CN2CCCC2)CC1
B. O=C(Nc1cc2nc(-c3cnco3)ccc2cn1)[C@H]1CC[C@H](CO)CC1
Task: # compare pEC50 for A vs B ; return the one with the smaller value // caller expects the label of the chosen entry
Output: A

====

# assay_target: UniProt P49841
# test_name: GSK3β kinase activity (Ser/Thr 09 peptide Z-lyte FRET assay)
# Format: biochemical
# protocol_conditions: recombinant kinase, 46 μM ATP, one hour at room temperature; read-out: EC50
observable: EC50 (nM)

A. Cn1cc(-c2cc3cc(NC(=O)[C@H]4CCCN4)ncc3cn2)cn1
B. O=C(Nc1cc2nc(-c3cccnc3)ccc2cn1)C1CC1
Task: Select one. Lower EC50: A or B Record your answer as the label of the chosen record.
Output: A
